Provenance of the data: ChEMBL document CHEMBL1148772

Kindly state MIC90 for each of the entries shown.
Test system: Mycobacterium tuberculosis
Experiment: Antimycobacterial activity against Mycobacterium tuberculosis H37Ra by microplate alamar blue assay
Type: functional
Give bare numbers, in µg/mL.

**Query** Value lookup for MIC90; key = CCCCCCCCC#Cc1cn([C@H]2C[C@H](F)[C@@H](CO)O2)c(=O)[nH]c1=O
**Result** 10

**Query** Another compound to look at: CCCCCCCCCCCC#Cc1cn([C@H]2C[C@H](F)[C@@H](CO)O2)c(=O)[nH]c1=O
**Result** 10

**Query** Another compound to look at: CCCc1ccc(C#Cc2cn([C@H]3C[C@H](F)[C@@H](CO)O3)c(=O)[nH]c2=O)cc1
**Result** 50

**Query** Another compound to look at: CCCCCCCCCCCCC#Cc1cn([C@H]2CC[C@@H](CO)O2)c(=O)[nH]c1=O
**Result** 10

**Query** Another compound to look at: CCCCCCCCCCCCC#Cc1cn(C2CC(F)C(CO)O2)c(=O)[nH]c1=O (stereo not drawn)
**Result** 1

**Query** Another compound to look at: CCSc1nc(N)nc2c1ncn2[C@H]1CC[C@@H](CO)O1
**Result** 10

**Query** Another compound to look at: CCCCCCCCC#Cc1cn([C@H]2CC[C@@H](CO)O2)c(=O)[nH]c1=O
**Result** 1

**Query** Another compound to look at: O=c1[nH]c(=S)c(Cl)cn1[C@H]1CC[C@@H](CO)O1
**Result** 50

**Query** Another compound to look at: CCCCCCCCCCCC#Cc1cn([C@H]2CC[C@@H](CO)O2)c(=O)[nH]c1=O
**Result** 10

**Query** Another compound to look at: CC(=O)OC[C@@H]1CC[C@H](n2cc(Cl)c(=S)[nH]c2=O)O1
**Result** 50

Return reported MIC90 values for all items listed beneath this line.
1. CCCCCCCCCCC#Cc1cn([C@H]2C[C@H](F)[C@@H](CO)O2)c(=O)[nH]c1=O
2. CCCCCCCCCC#Cc1cn([C@H]2CC[C@@H](CO)O2)c(=O)[nH]c1=O
3. CO[C@H]1/C=C/O[C@@]2(C)Oc3c(C)c(O)c4c(O)c(c(/C=N/N5CCN(C)CC5)c(O)c4c3C2=O)NC(=O)/C(C)=C\C=C\[C@H](C)[C@H](O)[C@@H](C)[C@@H](O)[C@@H](C)[C@H](OC(C)=O)[C@@H]1C

**Result**
[10, 1, 0.5]
